Please provide measured pEC50 for the entries that follow.
target: phosphorylation levels of ERK1/2 in AsPC-1 (homozygous KRAS-G12D) cells (Homo sapiens, UniProt P01116, G12D); experiment: Cellular phospho-ERK assay in AsPC-1 cells (Alpha Screen), assay medium without fetal bovine serum; conditions: phospho-ERK AlphaScreen, 18 h
Sequence (P01116 1-186 G12D): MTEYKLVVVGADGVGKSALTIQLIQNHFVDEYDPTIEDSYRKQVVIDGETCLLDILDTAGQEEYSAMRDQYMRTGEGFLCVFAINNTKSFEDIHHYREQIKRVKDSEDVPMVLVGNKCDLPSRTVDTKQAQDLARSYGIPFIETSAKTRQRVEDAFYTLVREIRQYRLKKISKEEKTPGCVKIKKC
pEC50: −log10 of the molar value. *1 amine or outer side, *2 acyl side, *3 side chain or, on linkers, in order; H or OH if unused. Where a SMILES comes first, the peptide text is derived from it. [ ]: non-standard residue; d: D form. Phe(2-F) = N[C@@H](Cc1ccccc1F)C(=O)O; NMe3Pal = CN[C@@H](Cc1cccnc1)C(=O)O; X1 = O=C(C12CC(CN[*:1])(C1)C2)[*:2]; PhLac = O=C(O)[C@@H](O)Cc1ccccc1; 3Pal = N[C@@H](Cc1cccnc1)C(=O)O; NMeA = CN[C@@H](C)C(=O)O; Nle = CCCC[C@H](N)C(=O)O; Nva = CCC[C@H](N)C(=O)O

## Task Quick one: give measured pEC50 for CCCC[C@@H]1NC(=O)[C@H](Cc2cccnc2)NC(=O)[C@H](C)N(C)C(=O)[C@H](Cc2ccccc2)NC(=O)C23CC(CNC(=O)[C@H](Cc4cccnc4)N(C)C(=O)[C@H](CCCC)NC(=O)[C@H](Cc4ccccc4F)NC1=O)(C2)C3 [compound 162] (cyclo(F[NMeA][3Pal][Nle][Phe(2-F)][Nle][NMe3Pal][X1]))
## Result < 4.29

## Task Supply pEC50 value. Item: CCCC[C@@H]1NC(=O)[C@H](Cc2cccnc2)NC(=O)[C@H](C)N(C)C(=O)[C@H](Cc2ccccc2)OC(=O)C23CC(CNC(=O)[C@H](Cc4cccnc4)N(C)C(=O)[C@H](CCC)NC(=O)[C@H](Cc4ccccc4F)NC1=O)(C2)C3 [compound 116] (cyclo([3Pal][Nle][Phe(2-F)][Nva][NMe3Pal][X1][PhLac][NMeA]))
## Result < 4.29

###

Kindly state EC50 for each of the entries shown.
molecular target: phosphorylation levels of ERK1/2 in AsPC-1 (homozygous KRAS-G12D) cells (Homo sapiens, UniProt P01116, G12D); assay: Cellular phospho-ERK assay in AsPC-1 cells (Alpha Screen), assay medium without fetal bovine serum; details: phospho-ERK AlphaScreen, 18 h
*1 amine or outer side, *2 acyl side, *3 side chain or, on linkers, in order; H or OH if unused. Where a SMILES comes first, the peptide text is derived from it. [ ]: non-standard residue; d: D form. X34 = O=C(C[C@@H](Cc1ccccc1)C(=O)[*:2])C12CC(CN[*:1])(C1)C2; Ala(pyrimidin-5-yl) = N[C@@H](Cc1cncnc1)C(=O)O; X11 = CC(C)(F)CC[C@H](N[*:1])C(=O)[*:2]; Phe(2-F) = N[C@@H](Cc1ccccc1F)C(=O)O; NMe3Pal = CN[C@@H](Cc1cccnc1)C(=O)O; X1 = O=C(C12CC(CN[*:1])(C1)C2)[*:2]; Ala(cPr) = N[C@@H](CC1CC1)C(=O)O; NMeF = CN[C@@H](Cc1ccccc1)C(=O)O; PhLac = O=C(O)[C@@H](O)Cc1ccccc1; 3Pal = N[C@@H](Cc1cccnc1)C(=O)O; NMeAbu = CC[C@H](NC)C(=O)O; NMeA = CN[C@@H](C)C(=O)O; Nle = CCCC[C@H](N)C(=O)O

## Task Answer with the recorded EC50 for the compound listed here: CCCC[C@@H]1NC(=O)[C@H](Cc2ccccc2)NC(=O)[C@H](C)N(C)C(=O)[C@H](Cc2ccccc2)OC(=O)C23CC(CNC(=O)[C@H](Cc4ccccc4)N(C)C(=O)[C@H](CCCC)NC(=O)[C@H](Cc4ccccc4F)NC1=O)(C2)C3 [compound 305] (cyclo(F[Nle][Phe(2-F)][Nle][NMeF][X1][PhLac][NMeA]))
## Result > 50.8 µM

## Task Consider the compound CCCC[C@@H]1NC(=O)[C@H](Cc2cccnc2)NC(=O)[C@H](CC)N(C)C(=O)[C@H](Cc2ccccc2)OC(=O)C23CC(CNC(=O)[C@H](Cc4cccnc4)N(C)C(=O)[C@H](CCCC)NC(=O)[C@H](Cc4ccccc4F)NC1=O)(C2)C3 [compound 404] (cyclo([3Pal][Nle][Phe(2-F)][Nle][NMe3Pal][X1][PhLac][NMeAbu])) . State its measured EC50.
## Result 31 µM

## Task # return recorded EC50 for input C[C@H]1C(=O)N[C@@H](Cc2cncnc2)C(=O)N[C@@H](CC2CC2)C(=O)N[C@@H](Cc2ccccc2F)C(=O)N[C@@H](CCC(C)(C)F)C(=O)N(C)[C@@H](Cc2ccccc2)C(=O)NCC23CC(C2)(C3)C(=O)C[C@@H](Cc2ccccc2)C(=O)N1C [compound 273] (cyclo([Ala(cPr)][Phe(2-F)][X11][NMeF][X34][NMeA][Ala(pyrimidin-5-yl)]))
## Result 1.23 µM

###

target: phosphorylation levels of ERK1/2 in AsPC-1 (homozygous KRAS-G12D) cells (Homo sapiens, UniProt P01116, G12D); assay: Cellular phospho-ERK assay in AsPC-1 cells (Alpha Screen), assay medium without fetal bovine serum; conditions: phospho-ERK AlphaScreen, 18 h
*1 amine or outer side, *2 acyl side, *3 side chain or, on linkers, in order; H or OH if unused. Where a SMILES comes first, the peptide text is derived from it. [ ]: non-standard residue; d: D form. Ala(pyrimidin-5-yl) = N[C@@H](Cc1cncnc1)C(=O)O; Phe(2,6-F2) = N[C@@H](Cc1c(F)cccc1F)C(=O)O; Phe(2-F) = N[C@@H](Cc1ccccc1F)C(=O)O; NMe3Pal = CN[C@@H](Cc1cccnc1)C(=O)O; X1 = O=C(C12CC(CN[*:1])(C1)C2)[*:2]; NMeF = CN[C@@H](Cc1ccccc1)C(=O)O; PhLac = O=C(O)[C@@H](O)Cc1ccccc1; 3Pal = N[C@@H](Cc1cccnc1)C(=O)O; Cba = N[C@@H](CC1CCC1)C(=O)O; hLeu = CC(C)CC[C@H](N)C(=O)O; NMeA = CN[C@@H](C)C(=O)O; Nle = CCCC[C@H](N)C(=O)O
MEASUREMENT_LABEL: pEC50
Remember the convention: pEC50 equals -log10 of concentration in molar.

## Task Look up and report measured pEC50 for this entry: CCCC[C@@H]1NC(=O)[C@H](Cc2cccnc2)NC(=O)[C@H](C)N(C)C(=O)[C@H](Cc2ccccc2)OC(=O)C23CC(CNC(=O)[C@H](Cc4cccnc4)N(C)C(=O)[C@H](CCCC)NC(=O)[C@H](Cc4ccccc4F)NC1=O)(C2)C3 [compound 244] (cyclo([3Pal][Nle][Phe(2-F)][Nle][NMe3Pal][X1][PhLac][NMeA]))
## Result 5.14

## Task Output pEC50 of CC(C)CC[C@@H]1NC(=O)[C@H](Cc2c(F)cccc2F)NC(=O)[C@H](CC2CCC2)NC(=O)[C@H](Cc2cncnc2)NC(=O)[C@H](C)N(C)C(=O)[C@H](Cc2ccccc2)OC(=O)C23CC(CNC(=O)[C@H](Cc4ccccc4)N(C)C1=O)(C2)C3 [compound 226] (cyclo([Cba][Phe(2,6-F2)][hLeu][NMeF][X1][PhLac][NMeA][Ala(pyrimidin-5-yl)]))
## Result 6.45

###

biological target: phosphorylation levels of ERK1/2 in AsPC-1 (homozygous KRAS-G12D) cells (Homo sapiens, UniProt P01116, G12D); assay: Cellular phospho-ERK assay in AsPC-1 cells (Alpha Screen), assay medium without fetal bovine serum; settings: phospho-ERK AlphaScreen, 18 h;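 further: signal taken as phospho-ERK over total ERK per well, both detected in one multiplex bead assay, EC50 from four-parameter logistic fit of dose-response curves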
*1 amine or outer side, *2 acyl side, *3 side chain or, on linkers, in order; H or OH if unused. Where a SMILES comes first, the peptide text is derived from it. [ ]: non-standard residue; d: D form. NMeNva(5-imidazol-1-yl) = CN[C@@H](CCCn1ccnc1)C(=O)O; Ala(pyrimidin-5-yl) = N[C@@H](Cc1cncnc1)C(=O)O; X40 = CC(C)(F)C[C@H](N[*:1])C(=O)[*:2]; Phe(2-F) = N[C@@H](Cc1ccccc1F)C(=O)O; X1 = O=C(C12CC(CN[*:1])(C1)C2)[*:2]; NMeF = CN[C@@H](Cc1ccccc1)C(=O)O; PhLac = O=C(O)[C@@H](O)Cc1ccccc1; 3Pal = N[C@@H](Cc1cccnc1)C(=O)O; hLeu = CC(C)CC[C@H](N)C(=O)O; NMeA = CN[C@@H](C)C(=O)O; Nle = CCCC[C@H](N)C(=O)O
MEASUREMENT_LABEL: pEC50
// returns pEC50 (minus log10 of molar concentration), number only

## Task Supply reported pEC50 belonging to this molecule: CCCC[C@@H]1NC(=O)[C@H](Cc2cccnc2)NC(=O)[C@H](CCCn2ccnc2)N(C)C(=O)[C@H](Cc2ccccc2)OC(=O)C23CC(CNC(=O)[C@H](Cc4ccccc4)N(C)C(=O)[C@H](CCCC)NC(=O)[C@H](Cc4ccccc4F)NC1=O)(C2)C3 [compound 233] (cyclo([3Pal][Nle][Phe(2-F)][Nle][NMeF][X1][PhLac][NMeNva(5-imidazol-1-yl)]))
## Result 5.29

## Task Provide only the value of recorded pEC50 for CC(C)CC[C@@H]1NC(=O)[C@H](Cc2ccccc2F)NC(=O)[C@H](CC(C)(C)F)NC(=O)[C@H](Cc2cncnc2)NC(=O)[C@H](C)N(C)C(=O)[C@H](Cc2ccccc2)OC(=O)C23CC(CNC(=O)[C@H](Cc4ccccc4)N(C)C1=O)(C2)C3 [compound 136] (cyclo([NMeA][Ala(pyrimidin-5-yl)][X40][Phe(2-F)][hLeu][NMeF][X1][PhLac]))
## Result 5.11
